Test system: cGMP-dependent protein kinase
method_summary: Activation of cGMP-dependent protein kinase isolated from lobster tail
Format: biochemical
run_conditions: lobster tail kinase
reported_property: ability to activate the cGMP-dependent protein kinase (in words)

Check out these entries, answers already filled in.
Response field ability to activate the cGMP-dependent protein kinase (in words) (cGMP-dependent protein kinase) for item NC(=O)c1nc2c(=O)[nH]c(N)nc2n1[C@@H]1O[C@@H]2COP(=O)(O)O[C@H]2[C@H]1O : superior to cGMP

The observed ability to activate the cGMP-dependent protein kinase (in words) for Nc1nc2c(nc(C(O)c3ccccc3)n2[C@@H]2O[C@@H]3COP(=O)(O)O[C@H]3[C@H]2O)c(=O)[nH]1 (some centres unmarked) when tested with cGMP-dependent protein kinase stands at superior to cGMP

ability to activate the cGMP-dependent protein kinase (in words) value, target or system cGMP-dependent protein kinase, for CC(O)c1nc2c(=O)[nH]c(N)nc2n1[C@@H]1O[C@@H]2COP(=O)(O)O[C@H]2[C@H]1O (some centres unmarked) : superior to cGMP

Fill in: cGMP-dependent protein kinase ability to activate the cGMP-dependent protein kinase (in words) for O=C(c1ccccc1)c1nc2c(=O)[nH]cnc2n1[C@@H]1O[C@@H]2COP(=O)(O)O[C@H]2[C@H]1O [Compound 21, 8-Benzoylinosine 3',5'-Cyclic Phosphate] = slight activation

Note: attention shifts to another entry.
Log: cGMP-dependent protein kinase, compound CC(=O)c1nc2c(=O)[nH]cnc2n1[C@@H]1O[C@@H]2COP(=O)(O)O[C@H]2[C@H]1O [Compound 20, 8-Acetylinosine 3',5'-Cyclic Phosphate] , ability to activate the cGMP-dependent protein kinase (in words) = slight activation
